molecular target: Luciferin 4-monooxygenase (Photinus pyralis) (UniProt P08659); experiment: qHTS profiling assay for firefly luciferase inhibitor/activator using purifed enzyme and Km concentrations of substrates (counterscreen for miR-21 project); details: purified FLuc, luminescence inhibition; series mostly up to 57.5 µM; note: nearly all actives have a fitted effect of over 55% in size
Sequence (P08659 whole entry, looked up): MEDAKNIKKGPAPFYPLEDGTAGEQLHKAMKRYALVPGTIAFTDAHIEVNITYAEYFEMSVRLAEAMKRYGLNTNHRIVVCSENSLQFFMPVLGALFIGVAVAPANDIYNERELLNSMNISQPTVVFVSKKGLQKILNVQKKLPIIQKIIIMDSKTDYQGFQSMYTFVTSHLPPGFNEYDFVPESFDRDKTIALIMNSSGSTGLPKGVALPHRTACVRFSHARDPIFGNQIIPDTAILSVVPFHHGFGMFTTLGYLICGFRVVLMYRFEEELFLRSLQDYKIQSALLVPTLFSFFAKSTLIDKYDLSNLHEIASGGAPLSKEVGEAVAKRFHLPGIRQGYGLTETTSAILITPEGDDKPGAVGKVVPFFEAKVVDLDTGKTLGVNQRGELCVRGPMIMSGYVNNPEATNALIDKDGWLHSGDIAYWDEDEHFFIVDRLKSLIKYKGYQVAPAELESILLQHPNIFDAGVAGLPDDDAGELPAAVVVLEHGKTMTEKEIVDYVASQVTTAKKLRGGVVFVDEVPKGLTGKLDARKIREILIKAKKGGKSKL
In all, about 360,000 compounds went through this assay and about 25,000 (6.9%) were called active. Another 9% or so got no clear call; they are omitted. Calls come from the whole dose curve; as a rule, active = well fitted inhibition curve with a large enough effect; inconclusive = small, poorly fitted or top-dose-only effect; inactive = flat fitted curve, though single readings scatter. Shown is part of a subset that was picked to be rich in actives.
Classes used: 1 (yes) for active, 0 (no) for inactive

{"columns": ["molecule", "discrete label"],
 "data": [
  ["O=c1c2cc(-c3ccccc3)sc2nc2n1N=C(c1cccs1)CS2", "1 (yes)"],
  ["Cc1ccc(C)c(NC(=O)Cn2ccn(-c3ccc(F)cc3)c(=O)c2=O)c1", "0 (no)"],
  ["COc1ccc(-c2nnc(SC(C)C(=O)NC3CC3)o2)cc1 (stereo not drawn)", "0 (no)"],
  ["CC(=O)NC1C(Oc2ccc(C)cc2)OC2COC(c3ccco3)OC2C1O (stereo not drawn)", "0 (no)"],
  ["CC(C)CN(Cc1c(O)ccc2c(=O)c(-c3ccccc3)coc12)CC(C)C", "0 (no)"],
  ["CCc1nc2cccnc2n1-c1ccc(CC(=O)Nc2c(C)cccc2C)cc1", "0 (no)"],
  ["Cc1nnc2n1N=C(c1ccccc1)CS2", "0 (no)"],
  ["Cc1cc(OCc2cc(C(=O)NCc3cc(C(C)C)no3)no2)cc(C)c1Cl", "1 (yes)"],
  ["COc1ccc(CNC(=O)CN(Cc2ccccc2Cl)C(=O)c2csnn2)cc1", "0 (no)"],
  ["O=c1c(-c2ccccc2)coc2cc(O)ccc12", "1 (yes)"],
  ["CN(CC(=O)Nc1cccc(F)c1)C(=O)CC1CCCC1", "0 (no)"],
  ["Cc1ccccc1OCC(=O)Nc1c(C(=O)Nc2ccccc2F)oc2ccccc12", "0 (no)"],
  ["COCc1nnc(NC(=O)c2ccc3c(c2)OCO3)s1", "1 (yes)"],
  ["CCC(=O)N1CCc2cc(S(=O)(=O)NCCC(=O)Nc3cccc(C)c3C)ccc21", "0 (no)"],
  ["COCc1nnc(NC(=O)CS(=O)(=O)Cc2ccccc2)s1", "0 (no)"],
  ["CCOc1ccccc1CNC(=O)c1ccc(-n2c(C)cc3c2CCC(C)C3)cc1 (stereo not drawn)", "0 (no)"],
  ["Cc1ccc(C)c(NC(=O)CN(C)C(=O)c2ccc3ncsc3c2)c1", "0 (no)"],
  ["O=C(O)/C=C\\C(=O)Nc1ccc(OCc2ccccc2)cc1", "1 (yes)"],
  ["Cc1cccc(NC(=O)Nc2ccc(OCc3ccccc3)cc2)n1", "0 (no)"],
  ["Cc1cc(C)c(NC(=O)CN2C(=O)c3cccnc3Oc3ccc(Cl)cc32)c(C)c1", "0 (no)"],
  ["Cc1ccc(-c2nn(CCC(=O)Nc3ccc(Cl)c(Cl)c3)c(=O)c3ccccc23)cc1", "0 (no)"],
  ["CCCCCCn1nnc2sc(-c3ccccc3)cc2c1=O", "0 (no)"],
  ["CC(NC(=O)Nc1cccc([N+](=O)[O-])c1)c1ccc2c(c1)OCO2 (stereo not drawn)", "0 (no)"]
]}
